Examples of molecules with documented EC50 follow.
test system: pLAI reporter virus; experiment: microbe, parasite or virus in culture; type: cell-based, HIV; details: Human immunodeficiency virus 1, MT4, 72 h, read-out: RLUC CCM EC50
The figure you give is taken to be in nM; do not add the unit.

Some molecules with known EC50 results, for comparison:
C[C@H]1CC[C@]2(CC(=O)N(Cc3cnn(C)n3)O2)[C@H]2CN1C(=O)c1c(O)c(=O)c(C(=O)NCc3c(F)cc(F)cc3F)cn12
0.9
C[C@H]1CC[C@]2(CO[C@H](Cc3ccccc3)O2)[C@H]2CN1C(=O)c1c(O)c(=O)c(C(=O)NCc3c(F)cc(F)cc3F)cn12
1.9

May I ask what EC50 has been recorded for COC1=NO[C@@]2(CC[C@H](C)N3C[C@H]2n2cc(C(=O)NCc4cc(F)c(F)cc4F)c(=O)c(O)c2C3=O)C1 ?
0.6

Consider the molecule CC1=NO[C@@]2(CC[C@H](C)N3C[C@H]2n2cc(C(=O)NCc4ccc(F)c(Cl)c4F)c(=O)c(O)c2C3=O)C1 and give its measured EC50.
0.2
